# normalized growth per record follows
measurement_description: chemical genetic growth profiling, strain panel (AID 1159580);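 also: tested at 20 µM; growth read once vehicle control cultures reached saturation at 30 °C; 1 = growth at the plate median or of vehicle wells; lower values mean less growth of the strain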
run_parameters: S. cerevisiae deletion strains, growth OD, locus YGL086W, strain mad1, active compounds read low
Among all 5,500 compounds or so, about 2,000 (36%) were called active. Not shown: some 18% with an inconclusive outcome. The list shows a part of the results.

Some compounds with recorded normalized growth:
COC(=O)[C@@H]1OC(=O)C2OC23[C@@]1(C)CCC1[C@@]2(C)CCC(=O)C(C)(C)C2C[C@@H](OC(C)=O)[C@]13C (some centres undefined) | 1.02 (inactive)
O=c1[nH]c(=O)n(C2C[C@H](O)[C@@H](CO)O2)cc1C(F)(F)F (some centres undefined) | 0.979 (inactive)
COc1ccc2oc3ccccc3c(=O)c2c1 | 0.836 (active)
Clc1ccc(COC(Cn2ccnc2)c2ccc(Cl)cc2Cl)cc1 (centres undefined) | 0.0553 (active)
C[C@]12CCC3c4ccc(OC(=O)CCC(=O)O)cc4CCC3C1CCC2=O (some centres undefined) | 0.922 (active)
Cc1onc(-c2ccccc2)c1-c1ccc(S(N)(=O)=O)cc1 | 0.988 (inactive)
O=C(O)C(O)C(O)C(=O)O (centres undefined) | 1 (inactive)
Cc1nnc(NS(=O)(=O)c2ccc(N)cc2)s1 | 1 (inactive)

Q: Report normalized growth, nothing else, for this compound: COc1ccc2oc(-c3ccccc3)c(OC)c(=O)c2c1
A: 0.882 (active)

Q: Report normalized growth, nothing else, for this compound: FC(F)(F)c1cccc(N2CCNCC2)c1
A: 0.983 (inactive)

Q: Report normalized growth, nothing else, for this compound: COC1=CC(=O)OC(CCc2ccc(OC)c(OC)c2)C1 (centres undefined)
A: 1.02 (inactive)

Q: Report normalized growth, nothing else, for this compound: NC1(C(=O)O)CCC1
A: 0.955 (inactive)

Q: Report normalized growth, nothing else, for this compound: NC(C(=O)O)C(O)C(=O)O (centres undefined)
A: 1 (inactive)

Q: Report normalized growth, nothing else, for this compound: CCCCCCCCCCCC(=O)OCC(COP(=O)(O)OCC(O)COP(=O)(O)OCC(COC(=O)CCCCCCCCCCC)OC(=O)CCCCCCCCCCC)OC(=O)CCCCCCCCCCC (centres undefined)
A: 0.927 (active)

Q: Report normalized growth, nothing else, for this compound: COc1ccc2c(=O)c(OC)c(-c3ccccc3)oc2c1
A: 0.867 (active)

Q: Report normalized growth, nothing else, for this compound: Clc1ccc(CSC(Cn2ccnc2)c2ccc(Cl)cc2Cl)cc1 (centres undefined)
A: 0.0535 (active)

Q: Report normalized growth, nothing else, for this compound: NC1(C(=O)O)CC1
A: 1.03 (inactive)

Q: Report normalized growth, nothing else, for this compound: c1ccc2c(CC3=NCCN3)cccc2c1
A: 1.01 (inactive)

Q: Report normalized growth, nothing else, for this compound: C[C@]12CCC3c4ccc(O)cc4CCC3C1CCC2=O (some centres undefined)
A: 0.959 (inactive)
